assay: Apparent elimination half-life in syrian golden hamster at 400 mg/kg; format: ADME, organism-based, Mesocricetus auratus; set-up: dose 400 mg/kg; details: in vivo, read-out: beta t1/2 (converted)
measuredEndpoint: half-life (min)
# unit: min | format: bare number

(Q) // query half-life value for entry CCc1c(Cl)c(O)c(Cl)c(O)c1C(=O)O[C@H]1[C@H](O)[C@H](OC)[C@H](OC/C2=C\C=C\C[C@H](O)/C(C)=C/[C@H](CC)[C@@H](O[C@@H]3OC(C)(C)[C@@H](OC(=O)C(C)C)[C@H](O)[C@@H]3O)/C(C)=C/C(C)=C/C[C@@H]([C@@H](C)O)OC2=O)O[C@@H]1C [FIDAXOMICIN]
(A) 56.4
